# System: TK-10 renal
# ASSAY_NOTES: NCI tumour cell line growth inhibition, 48 h
REPORTED_ENDPOINT: TGI

Given COc1cccc(NC(=O)c2sc3nc4c(cc3c2N)C(O)CCC4)c1 (stereo not given) , state its recorded TGI.
> 100 µM

Also, C1CC2=C(C1)C1=S(S2)SC2=C1CCC2 please.
> 100 µM

Also, O=C1/C(=C/c2ccccc2)CCCc2ccccc21 please.
37.5 µM

Also, c1cc[c]([Sn]([O]c2cccc3cccnc23)([O]c2cccc3cccnc23)[c]2ccccc2)cc1 please.
2.73 µM

Also, CN1NC(c2ccccc2)=C(C#N)C(=O)CC1c1ccc(Br)cc1 (stereo not given) please.
> 100 µM

Also, Cc1cc(C)nc(NS(=O)(=O)c2ccc(NC(=O)c3cc([N+](=O)[O-])cc([N+](=O)[O-])c3)cc2)n1 please.
> 100 µM

Also, CCOC(=O)/C=C(/C(=O)OCC)n1ccc(=O)n(Cc2cnnn2CCCCOC(C)=O)c1=O please.
> 100 µM

Also, Cc1ccc(SCC(OCn2cnc3c(Cl)nc(N)nc32)[C@H](C)F)cc1 (stereo not given in full) please.
> 100 µM

Also, CC(=O)NC1(C)C(C)C2CC1C(C)C2(C)C (stereo not given) please.
> 100 µM

Also, C/C(O)=C(\N=O)C(=O)NCc1ccccc1 please.
> 100 µM

* * *

Would you kindly list TGI for each of these compounds?
# Tested on: SNB-19 CNS
# ASSAY_NOTES: NCI tumour cell line growth inhibition, 48 h
Where a SMILES comes first, the peptide text is derived from it. The star is where a group is joined. OSu = O=C1CCC(=O)N1O*

Query TGI on SNB-19 CNS for NCCCCC(NC(=O)C(N)Cc1ccc(O)cc1)C(=O)NC(Cc1ccc(O)cc1)C(=O)NC(CCCCN)C(=O)ON1C(=O)CCC1=O (stereo not given) (H-YKYK-OSu; configuration not given here)
> 100 µM

Also, COc1ccc(/C=C/C(=O)Oc2ccccc2OC)cc1 please.
> 100 µM

Also, Cc1cc(NS(=O)(=O)c2ccc(Nc3c4ccccc4nc4c(C(=O)NCCO)cccc34)cc2)no1 please.
> 100 µM

Also, O=[N+]([O-])C(C(Cl)=C(Cl)Cl)=C(n1cncn1)n1cncn1 please.
> 100 µM

Also, COc1ccc2c(c1)CCc1c(CO)c(COC(=O)NC(C)C)n(C)c1-2 please.
56.1 µM

* * *

# Tested on: SNB-75 CNS
# ASSAY_NOTES: NCI tumour cell line growth inhibition, 48 h
REPORTED_ENDPOINT: TGI

Given O=C(c1ccco1)N(C(=S)N1CCN(c2ccccn2)CC1)c1ccccc1 , state its recorded TGI.
> 100 µM

Also, CCn1c(=N)sc2nc3ccccc3n2c1=O please.
> 100 µM

Also, CCC(=O)Nc1ccc(NCC(=O)Nc2ccc(OC)cc2)cc1 please.
34.3 µM

Also, COC(=O)CNC(=O)CCC(C)[C@H]1CCC2C3C(C[C@H](OC(C)=O)[C@@]21C)[C@@]1(C)CCC2(C[C@H]1C[C@H]3OC(C)=O)OOC1(CCCCC1)OO2 (stereo not given in full) please.
5.3 µM

Also, O=c1c2c3c(sc2nc2n1N=CN(c1ccc(F)cc1)C2)CCCC3 please.
> 100 µM

Also, Cc1noc(C)c1-c1cnc2c(-c3ccc(C(=O)O)cc3)cn([C@@H](C)c3ccccn3)c2c1 please.
2.47 µM

Also, N#Cc1c(-c2ccccc2)cc(Nc2ccc(Cl)cc2)n2c1nc1ccccc12 please.
> 31.1 µM

Also, C[n+]1cn(-c2nc3ccccc3nc2[N-]S(=O)(=O)c2ccccc2)c2ccccc21 please.
> 100 µM

Also, CC(=O)NC1=C(N)C(=O)c2ccccc2C1=O please.
> 100 µM

Also, COc1cccc2nc3c(C(=O)NCCN(C)C)cccc3nc12 please.
> 47.9 µM

* * *

# Tested on: UACC-62 melanoma
# ASSAY_NOTES: NCI tumour cell line growth inhibition, 48 h
Would you kindly list TGI for each of these compounds?

Given CCCCN1C(=O)/C(=c2\sc3n(c2=O)C2C(NN=3)N(CC)C(=O)N2CC)c2ccccc21 (centres undefined) , state its recorded TGI.
3.55 µM

Also, NS(=O)(=O)c1nnc(NS(=O)(=O)c2ccc([N+](=O)[O-])cc2)s1 please.
> 100 µM

Also, COc1cc(NC(C)CCCNC(C)C)c2ncccc2c1OC (centres undefined) please.
> 100 µM

Also, OC12c3ccccc3C1CCCCCC21OCCCO1 (centres undefined) please.
> 100 µM

Also, CCN(CC)c1nc(NC2CCCCC2)c2nc(N(CC)CC)nc(NC3CCCCC3)c2n1 please.
> 100 µM

Also, COc1ccc2nc3cccc([N+](=O)[O-])c3c(NCCNCCN(C)C)c2c1 please.
0.3 µM

Also, C[n+]1ccccc1/C1=c2\cc/c([nH]2)=C(\c2cccc[n+]2C)C2=N/C(=C(/c3cccc[n+]3C)C3C=CC(N3)/C(c3cccc[n+]3C)=C3/C=CC1=N3)C=C2 please.
> 100 µM

Also, Nc1ccc(-c2ccc3ncc4ccc(=O)n(-c5cccc(C(F)(F)F)c5)c4c3c2)cn1 please.
0.026 µM

Also, COCOc1cc(OC)ccc1C/C(=N/O)C(=O)OC please.
> 100 µM

* * *

Would you kindly list TGI for each of these compounds?
# Test system: T-47D breast
# ASSAY_NOTES: NCI tumour cell line growth inhibition, 48 h
Output spec: scalar in µM, unitless text.

Query TGI on T-47D breast for Cc1ccc(C(=O)N/N=C2/C(=O)c3c4ccccc4cc4cccc2c34)cc1
83.2

Also, O=C(Oc1ccccc1)C(Br)C(Br)c1ccccc1 (stereo unspecified) please.
6.23

Also, N#Cc1c(-c2ccc([N+](=O)[O-])cc2)cc(-c2ccc(Nc3ccnc4cc(Cl)ccc34)cc2)nc1N please.
11.1

* * *

# System: SK-OV-3 ovarian
# ASSAY_NOTES: NCI tumour cell line growth inhibition, 48 h
Would you kindly list TGI for each of these molecules?

Given CCN(CC)c1ccc2nc3ccc(N=Nc4ccc(O)cc4)cc3[n+](-c3ccccc3)c2c1 , state its recorded TGI.
> 100 µM

Also, O=C(CN(/C=C/C(=O)C(F)(F)F)c1ccccc1)c1ccc(Cl)cc1 please.
> 100 µM

Also, Cc1cc2nnc(C(N)=O)c(N)c2cc1C please.
> 100 µM

Also, O=C1/C(=C/c2ccccc2)CCCc2ccccc21 please.
> 100 µM

Also, [N-]=[N+]=Nc1ccc2c(c1)Sc1ccccc1N2CCCCN1CCN(C(=O)CCNC(=O)Cc2ccc(C(=O)c3ccccc3)cc2)CC1 please.
> 100 µM

Also, O=C(c1ccco1)N(C(=S)N1CCN(c2ccccn2)CC1)c1ccccc1 please.
> 100 µM

Also, Cc1cc(N(CCC#N)CCC#N)ccc1/C(N=Nc1ccc([N+](=O)[O-])cc1)=N\NC(=O)c1ccccc1 please.
> 100 µM

Also, Cc1cc2c(cc1CO)N1Cc3cc(C)c(CO)cc3N(C2)C1 please.
> 100 µM

Also, COc1ccc(-c2n[nH]nc2-c2cc(OC)c3c(c2)OCO3)cc1 please.
2.08 µM

Also, C=CCCC(=O)C(=[N+]=[N-])C(=O)CCC(=O)c1ccccc1 please.
> 10 µM

Also, CC1=C(C#N)C(/C=C(\Cl)c2ccc(F)cc2)C(C#N)=C(C)N1 please.
> 100 µM

Also, O=C(O)Cn1ccc2ccccc21 please.
> 100 µM

Also, CCNC(=S)NNC(=O)CSc1nc2ccc(I)cc2c(=O)n1Cc1ccccc1 please.
> 100 µM

Also, CCN(CC)c1ccc(N=Nc2ccc(-c3nc4cccn(C)c-4n3)cc2)cc1 please.
43.5 µM

Also, C#CC(O)/C=C/C(O)CCCC(O)CC#CC(O)C#CCCCCC(O)/C=C/CCCC(O)/C=C/CCCCCCCCCCCCCC(O)C(O)C#CC(=O)O (stereo not given) please.
> 25 µM

Also, Cc1c(C)c2c(c(C)c1OCC(=O)O)CC[C@@](C)(CCC[C@@H](C)CCC[C@@H](C)CCCC(C)C)O2 please.
148 µM

Also, O=C(/C(=N/Nc1ccccc1)c1ccc([N+](=O)[O-])cc1)c1ccc([N+](=O)[O-])cc1 please.
> 100 µM

Also, COC(=O)CC(=O)NCC1=CCC(=O)CC1 please.
> 100 µM

Also, Cn1cncc1-c1c(F)cncc1NC(=O)c1c(N)nn2cc(F)cnc12 please.
8.92 µM

Also, COc1cccc2cc(C(=O)NC34CC5CC(CC(C5)C3)C4)c(=N)oc12 please.
> 100 µM

Also, CN(C)N=Nc1ccc2[nH]c(=O)[nH]c2c1 please.
> 100 µM

Also, COc1cc2c3c(c1OC)C(=O)C=C3N(S(=O)(=O)c1ccc(C)cc1)CC2 please.
> 100 µM

Also, CCC(=O)Nc1ccc(NCC(=O)Nc2ccc(OC)cc2)cc1 please.
95.3 µM

Also, CC(=O)O[C@H]1C(=O)[C@@]2(C)[C@H]([C@H](OC(=O)c3ccccc3)[C@]3(O)C[C@H](OC(=O)[C@H](O)[C@@H](NC(=O)c4ccc(N(C)C)cc4)c4ccccc4)C(C)=C1C3(C)C)[C@]1(OC(C)=O)CO[C@@H]1C[C@@H]2O please.
> 50 µM

Also, NC(=S)N/N=C1/CN(c2ccc(Cl)c(Cl)c2)CC(=O)C1c1nc2ccccc2s1 (stereo not given) please.
> 100 µM

Also, CCN(CC)CCN1C(=O)C(=O)N(c2cccc3ccccc23)C1=O please.
> 10 µM

Also, C[C@H](NC(=O)c1c(C(F)F)nn(C)c1Oc1cccc(C(F)(F)F)c1)c1ccc(C(=O)O)cc1 please.
> 100 µM

Also, CCc1nn2ncccc2c1-c1ccnc(NC2CC2)n1 please.
> 25 µM

Also, Nc1c2cc3ccc2nc2ccc(cc12)OCCOCCOCCOCCOCCOCCO3 please.
> 10 µM

Also, N#Cc1c(-c2ccccc2)cc(Nc2ccc(Cl)cc2)n2c1nc1ccccc12 please.
> 30.4 µM

Data provenance: PubChem BioAssay (NCI)
